method_summary: Acute toxicity (LD50)
test_context: in vivo; read-out: LD50
As shown below, each of these compounds has a reported LD50 value.
endpoint_name: LD50

O=c1cc(-c2ccccc2)oc2cc(O)c(O)c(O)c12 : 14000 mg/kg
O=C(O)[C@H]1O[C@@H](Oc2cc3oc(-c4ccccc4)cc(=O)c3c(O)c2O)[C@H](O)[C@@H](O)[C@@H]1O : 11000 mg/kg
